Tested on: P-glycoprotein (P-gp)
Experiment: P-gp content in MCF-7/ADR cell lysate (human P-gp ELISA kit)
Type: cell-based
Settings: human, MCF-7/ADR cells (cell lysate); MCF-7/ADR cell lysate, 48 h, ELISA
Description: P-glycoprotein (P-gp)-mediated multidrug resistance (MDR) is a phenomenon in which cells become resistant to structurally and mechanistically unrelated drugs, resulting in low intracellular drug concentrations. […] The content of P-gp in the MCF-7/ADR cell lysates after incubation with varying conc. […] Absorption was recorded at 450 nm with a Spectramax Gemini fluorescence microplate reader (Molecular Devices, Sunnyvale, CA, USA).
recordedEndpoint: IC50 at 48 h (µM)
Provide only the numeric value, understood in µM.

N#CC1=C(N)Oc2ccc3ccc(O)cc3c2C1c1cc(Cl)ccc1Cl (stereo not shown) [4e] = 18.7
COc1cccc2c1C(=O)c1c(O)c3c(c(O)c1C2=O)C[C@@](O)(C(=O)CO)C[C@@H]3O[C@H]1C[C@H](N)[C@H](O)[C@H](C)O1 [Doxorubicin, reference compound] = 50.9
N#CC1=C(N)Oc2ccc3ccc(O)cc3c2C1c1ccc(Cl)cc1Cl (stereo not shown) [4d] = 65.9
N#CC1=C(N)Oc2ccc3ccc(O)cc3c2C1c1ccc(F)cc1F (stereo not shown) [4a] = 32
N#CC1=C(N)Oc2ccc3ccc(O)cc3c2C1c1ccc(Cl)c(Cl)c1 (stereo not shown) [4g] = 34.6
N#CC1=C(N)Oc2ccc3ccc(O)cc3c2C1c1cc(Br)cc(Br)c1 (stereo not shown) [4i] = 53.6

For the next question, use this compound.
Request: Test system P-glycoprotein (P-gp); read-out IC50 at 48 h; what value for N#CC1=C(N)Oc2ccc3ccc(O)cc3c2C1c1cccc(Cl)c1Cl (stereo not shown) [4c] ?
Response: 30.8

====

Here, each record is paired with measured melting point data.

N#CC1=C(N)Oc2ccc3ccc(O)cc3c2C1c1c(F)cccc1Cl (stereo not shown) = 298 to 299 °C
COc1cccc(C2C(C#N)=C(N)Oc3ccc4ccc(O)cc4c32)c1O (stereo not shown) = 269 to 270 °C
N#CC1=C(N)Oc2ccc3ccc(O)cc3c2C1c1c(F)c(F)c(F)c(F)c1F (stereo not shown) = 299 to 300 °C
COc1ccc(C2C(C#N)=C(N)Oc3ccc4ccc(O)cc4c32)cc1OC (stereo not shown) = 268 to 269 °C
COc1cc(C2C(C#N)=C(N)Oc3ccc4ccc(O)cc4c32)cc(OC)c1OC (stereo not shown) = 252 to 253 °C
COc1ccc(C2C(C#N)=C(N)Oc3ccc4ccc(O)cc4c32)c(OC)c1 (stereo not shown) = 242 to 243 °C

Request: Which value of melting point has been reported for COc1cc(OC)c(C2C(C#N)=C(N)Oc3ccc4ccc(O)cc4c32)cc1OC (stereo not shown) in the records?
Response: 235 to 236 °C

Request: Item N#CC1=C(N)Oc2ccc3ccc(O)cc3c2C1c1c(Cl)cccc1Cl (stereo not shown) has what recorded melting point?
Response: 196 to 197 °C

Request: Query (compound): N#CC1=C(N)Oc2ccc3ccc(O)cc3c2C1c1c(F)cccc1F (stereo not shown) ; field requested: melting point
Response: 193 to 194 °C

Request: If you can, please state the reported melting point value of COc1ccc(C2C(C#N)=C(N)Oc3ccc4ccc(O)cc4c32)c(OC)c1OC (stereo not shown) .
Response: 265 to 266 °C

====

Tested on: HeLa (cervical cancer cell line)
Assay: MTT colorimetric cytotoxicity assay, HeLa
Assay type: cell-based, human
Details: Homo sapiens, HeLa, 24 h, 24 h incubation, mean ± standard error
Each entry falls into one class according to its IC50; the ranges are lower segment: < 3 µM; middle segment: ≥ 3 µM and < 5 µM; upper segment: ≥ 5 µM

Consider the worked cases shown below.
COc1cccc(C2C(C#N)=C(N)Oc3ccc4ccc(O)cc4c32)c1O (centres unmarked) = upper segment
N#CC1=C(N)Oc2ccc3ccc(O)cc3c2C1c1c(F)c(F)c(F)c(F)c1F (centres unmarked) = middle segment
N#CC1=C(N)Oc2ccc3ccc(O)cc3c2C1c1cc(Br)cc(Br)c1 (centres unmarked) = middle segment

Request: Please classify: N#CC1=C(N)Oc2ccc3ccc(O)cc3c2C1c1c(F)cccc1Cl (centres unmarked)
Response: middle segment

Request: # bin lookup: classify N#CC1=C(N)Oc2ccc3ccc(O)cc3c2C1c1ccc(F)cc1F (centres unmarked) by its IC50
Response: lower segment

Request: Kindly state the category for this compound: COc1ccc(C2C(C#N)=C(N)Oc3ccc4ccc(O)cc4c32)cc1OC (centres unmarked)
Response: upper segment

Request: Kindly state the category for this compound: N#CC1=C(N)Oc2ccc3ccc(O)cc3c2C1c1ccc(Cl)c(Cl)c1 (centres unmarked)
Response: lower segment

Request: Which class does N#CC1=C(N)Oc2ccc3ccc(O)cc3c2C1c1c(Cl)cccc1Cl (centres unmarked) fall in?
Response: middle segment

Request: Record CC[C@]1(O)C[C@@H]2CN(CCc3c([nH]c4ccccc34)[C@@](C(=O)OC)(c3cc4c(cc3OC)N(C)[C@H]3[C@@](O)(C(=O)OC)[C@H](OC(C)=O)[C@]5(CC)C=CCN6CC[C@]43[C@@H]65)C2)C1 [Vinblastine, reference compound] — which class?
Response: upper segment

Request: Quick check: band for COc1cc(C2C(C#N)=C(N)Oc3ccc4ccc(O)cc4c32)cc(OC)c1OC (centres unmarked)
Response: upper segment

Request: Would you mind sorting N#CC1=C(N)Oc2ccc3ccc(O)cc3c2C1c1cc(Cl)ccc1Cl (centres unmarked) into the appropriate category?
Response: lower segment

Request: Kindly identify the class of N#CC1=C(N)Oc2ccc3ccc(O)cc3c2C1c1c(F)cccc1F (centres unmarked) .
Response: upper segment

Request: Would you mind sorting N#CC1=C(N)Oc2ccc3ccc(O)cc3c2C1c1ccc(Cl)cc1Cl (centres unmarked) into the appropriate category?
Response: lower segment

====

Test system: P-glycoprotein (P-gp)
Assay: P-gp content in MCF-7/ADR cell lysate (human P-gp ELISA kit)
Assay type: cell-based
Details: human, MCF-7/ADR cells (cell lysate); Conc. 25 (µM), MCF-7/ADR cell lysate, 48 h, ELISA
recordedEndpoint: inhibition at 48 h, 25 µM (%)
Field: numeric (%). Do not append units.

Request: Return reported inhibition at 48 h, 25 µM; argument: N#CC1=C(N)Oc2ccc3ccc(O)cc3c2C1c1cccc(Cl)c1Cl (stereo not drawn)
Response: 37

====

System: HeLa (cervical cancer cell line)
Assay: MTT colorimetric cytotoxicity assay, HeLa
Format: cell-based, human
Conditions: Homo sapiens, HeLa, 24 h, 24 h incubation, mean ± standard error
Description: Three human cancer cell lines, PC-3 (human prostate adenocarcinoma, metastatic), […], were used to test the anti-proliferative activity of β-enaminonitrile (4a–p) using the MTT colorimetric assay at concentrations ranging from 0–100 μM. […]
recordedEndpoint: pIC50
The scale used: pIC50 is minus the common logarithm of the concentration in molar units.

Example results:
COc1cc(OC)c(C2C(C#N)=C(N)Oc3ccc4ccc(O)cc4c32)cc1OC (stereo not shown) = 5.31
N#CC1=C(N)Oc2ccc3ccc(O)cc3c2C1c1cccc(Cl)c1Cl (stereo not shown) = 5.77
COc1ccc(C2C(C#N)=C(N)Oc3ccc4ccc(O)cc4c32)c(OC)c1OC (stereo not shown) = 5.06

Request: Report pIC50 for COc1cccc2c1C(=O)c1c(O)c3c(c(O)c1C2=O)C[C@@](O)(C(=O)CO)C[C@@H]3O[C@H]1C[C@H](N)[C@H](O)[C@H](C)O1 [Doxorubicin, reference compound] tested on HeLa (cervical cancer cell line).
Response: 5.82

====

System: P-glycoprotein (P-gp)
Test: P-gp content in MCF-7/ADR cell lysate (human P-gp ELISA kit)
Format: cell-based
Conditions: human, MCF-7/ADR cells (cell lysate); Conc. 25 (µM), MCF-7/ADR cell lysate, 48 h, ELISA
Parameter inhibition at 48 h, 25 µM: see the listing below.
Number in %, nothing else.

Below, 4 molecules whose answers are already recorded.
N#CC1=C(N)Oc2ccc3ccc(O)cc3c2C1c1cc(Cl)ccc1Cl (centres unmarked) = 54
N#CC1=C(N)Oc2ccc3ccc(O)cc3c2C1c1ccc(Cl)c(Cl)c1 (centres unmarked) = 34
N#CC1=C(N)Oc2ccc3ccc(O)cc3c2C1c1cc(Br)cc(Br)c1 (centres unmarked) = 30
N#CC1=C(N)Oc2ccc3ccc(O)cc3c2C1c1ccc(F)cc1F (centres unmarked) = 37

Please look at the following molecule next.
Request: Any idea what its inhibition at 48 h, 25 µM is? The molecule is N#CC1=C(N)Oc2ccc3ccc(O)cc3c2C1c1ccc(Cl)cc1Cl (centres unmarked)
Response: 25
